Item-by-item account of melting point

>  <Smiles notation>
O=S(=O)(Cl)c1ccc(Cl)cc1Cl

>  <melting point / °C>
54

$$$$
>  <Smiles notation>
CNC(=O)Oc1cc(C)c(N(C)C)c(C)c1

>  <melting point / °C>
85

$$$$
>  <Smiles notation>
O=CC=Cc1ccc([N+](=O)[O-])o1

>  <melting point / °C>
118

$$$$

----------
Observable: melting point

>  <Smiles notation>
COc1ccc(C=Nc2ccc(C3=NNC(=O)CC3)cc2)cc1

>  <Observable>
melting point

>  <Result>
213 to 215 °C

$$$$
>  <Smiles notation>
Cc1n[nH]c(SCc2ccc(Cl)cc2)n1

>  <Observable>
melting point

>  <Result>
151 to 153 °C

$$$$
>  <Smiles notation>
O=C(O)c1cccc(-n2cncn2)c1

>  <Observable>
melting point

>  <Result>
262 to 268 °C

$$$$
>  <Smiles notation>
COC(=O)c1sc(N(C)C)c(C#N)c1N

>  <Observable>
melting point

>  <Result>
240 to 243 °C

$$$$
>  <Smiles notation>
Cc1nc(-c2ccc(C=O)s2)cs1

>  <Observable>
melting point

>  <Result>
127 to 128 °C

$$$$

----------
Item-by-item account of melting point
Observable: melting point

>  <Smiles notation>
CCCCCCCCOc1ccc(NC(=O)c2ccc(C)cc2)cc1

>  <Result>
140 to 142 °C

$$$$
>  <Smiles notation>
CNC(=O)C=C(C)OP(=O)(OC)OC

>  <Result>
55 °C

$$$$
>  <Smiles notation>
O=C(O)c1ccc(-c2cccnc2)cc1

>  <Result>
271 to 274 °C

$$$$
>  <Smiles notation>
O=C(Nc1ccccc1)C(F)(F)F

>  <Result>
86 to 90 °C

$$$$

----------
>  <Smiles notation>
Cc1ccc(N2CCCC2=O)cc1

>  <melting point>
86 to 88 °C

$$$$
>  <Smiles notation>
CCOC(=O)c1c(SC)nn(C(=O)c2ccc(OC)cc2)c1N

>  <melting point>
160 °C

$$$$
>  <Smiles notation>
Cn1nc(C(=O)Cl)cc1-c1ccco1

>  <melting point>
60 to 61 °C

$$$$

----------
Item-by-item account of melting point
Observable: melting point

>  <Smiles notation>
Cc1ccccc1NC(=O)C(C)(C)C

>  <Result>
111 to 115 °C

$$$$
>  <Smiles notation>
COc1ccc(-c2cc3ccccc3cn2)cc1

>  <Result>
98.5 to 100 °C

$$$$
>  <Smiles notation>
Nc1nccnc1C(=O)O

>  <Result>
201 to 205 °C

$$$$

----------
>  <Compound>
CC(=O)C=CC1C(C)=CCC(C)C1(C)C (stereo not given)

>  <melting point>
< 25 °C

$$$$
>  <Compound>
CCCOCCC

>  <melting point>
-122 °C

$$$$
>  <Compound>
CCC1C2CC3C4N(C)c5ccccc5C45CC(C2C5O)N3C1O (stereo not given)

>  <melting point>
159 °C

$$$$
>  <Compound>
CC(=O)C1CCC2C3C=CC4=CC(=O)CCC4(C)C3CCC12C (stereo not given)

>  <melting point>
170 °C

$$$$
>  <Compound>
Cc1ccc(S(=O)(=O)N(C)N=O)cc1

>  <melting point>
60 °C

$$$$

----------
Item-by-item account of melting point

>  <Compound>
COc1ccc(C2NCCc3sccc32)cc1 (configuration not stated)

>  <melting point>
69 to 71 °C

$$$$
>  <Compound>
CC(C)(C)S(=O)(=O)c1cnc(-c2ccccn2)nc1N

>  <melting point>
266 to 268 °C

$$$$
>  <Compound>
Clc1ccc2c(N3CCNCC3)ccnc2c1

>  <melting point>
113 to 116 °C

$$$$
>  <Compound>
CCCCCCCCCCCC(=O)OC1OC(CO)C(OC2OC(CO)C(O)C(O)C2O)C(O)C1O (configuration not stated)

>  <melting point>
193 to 197 °C

$$$$
>  <Compound>
CC12CCC(=O)C=C1CCC1C2CCC2(C)C(OCc3ccccc3)CCC12 (configuration not stated)

>  <melting point>
198 to 199 °C

$$$$
>  <Compound>
CCOC(=O)c1c(SC)nn(S(=O)(=O)c2ccc(C)cc2)c1N

>  <melting point>
151 to 153 °C

$$$$
>  <Compound>
Brc1ccc(Oc2c(Br)cccc2Br)c(Br)c1

>  <melting point>
96 to 97 °C

$$$$
